Experiment: AUC (0 to infinity) in healthy human at 1 mg/kg, po by LC/MS/MS analysis
Format: ADME, organism-based
Set-up: time infinity, dose 1 mg/kg, route oral
Settings: plasma
property: AUC(0-inf) (µM·h)
Please reply with the bare figure in µM·h and do not write the unit itself.

Query: Find the measured AUC(0-inf) of C/C(=N\O)c1nc([C@@H](O)[C@H](O)[C@H](O)CO)c[nH]1.Cl and report it.
Result: 19

====

Test: Volume of distribution at steady state in 129/SvEvBrd X C57BL/6 F1 mouse at 1 mg/kg, iv by LC/MS/MS analysis
Format: ADME, organism-based
Set-up: dose 1 mg/kg, route intravenous
Details: in vivo, read-out: Vdss
property: Vd (L/kg)
Please reply with the bare figure in L/kg and do not write the unit itself.

Query: Find the measured Vd of Cl.OC[C@@H](O)[C@@H](O)[C@H](O)c1c[nH]c(-c2ccon2)n1 and report it.
Result: 0.54

Query: Find the measured Vd of C/C(=N\O)c1nc([C@@H](O)[C@H](O)[C@H](O)CO)c[nH]1.Cl and report it.
Result: 0.9

# credit: ChEMBL document CHEMBL1799925
